Experiment: in vivo
Details: rat, plasma, iv, 0.03 mg, Plasma Level, Mean, 30 μg/rat, 3 min, mean of 3 rats
Experimental Endpoint: concentration at 0.05 h

1) C=CCN1CC[C@]23c4c5ccc(O)c4O[C@H]2C(=O)CC[C@@]3(O)[C@H]1C5 [naloxone] : 0.058 µg/mL

---

Assay: in vivo
Settings: rat, plasma, 0.03 mg, Plasma Level, Mean, nasal, 30 μg/rat, 3 min, mean of 3 rats
Experimental Endpoint: concentration at 0.05 h

1. C=CCN1CC[C@]23c4c5ccc(O)c4O[C@H]2C(=O)CC[C@@]3(O)[C@H]1C5 : 38.3 ng/mL

---

Assay: in vivo
Settings: rat, plasma, 0.03 mg
Experimental Endpoint: bioavailability

1) C=CCN1CC[C@]23c4c5ccc(O)c4O[C@H]2C(=O)CC[C@@]3(O)[C@H]1C5 [naloxone] : 1.5%

---

Assay: in vivo
Conditions: rat, plasma, 0.03 mg, Plasma Level, Mean, nasal, 30 μg/rat, 1 min, mean of 3 rats
Experimental Endpoint: concentration at 1 min

1. C=CCN1CC[C@]23c4c5ccc(O)c4O[C@H]2C(=O)CC[C@@]3(O)[C@H]1C5 : 23.3 ng/mL

---

Test: in vivo
Settings: rat, plasma, 0.03 mg, Plasma Level, nasal, 30 μg/rat, 90 min, individual rats I, II, III
Experimental Endpoint: concentration at […]

1. C=CCN1CC[C@]23c4c5ccc(O)c4O[C@H]2C(=O)CC[C@@]3(O)[C@H]1C5 : 4.79 ng/mL

The origin of these recorded values is patent US4464378A.
